- tested_on: T1, HLA-A*0201 (human)
- T1 construct: also called HLA-A2.1; HLA-A2
- method_notes: T2 cell HLA-A*0201 stabilization, flow cytometry with mAb BB7.2
assay_readout: Fluorescence Index (HLA-A*0201 stabilization), 50 µM peptide

KMWGQYWQV (synthetic; N-terminal anchor (position 2) replaced by M) [gp100 154-162 epitope-analogue KMWGQYWQV]	1.73
KVWGQYWQV (synthetic; N-terminal anchor (position 2) replaced by V) [gp100 154-162 epitope-analogue KVWGQYWQV]	2.13
KIWGQYWQV (synthetic; N-terminal anchor (position 2) replaced by I) [gp100 154-162 epitope-analogue KIWGQYWQV]	2
KLWGQYWQV (synthetic; N-terminal anchor (position 2) replaced by L) [gp100 154-162 epitope-analogue KLWGQYWQV]	2.19
